Organism: Rattus norvegicus
measurementNotes: Open TG-GATES - Regimen: Daily Repeat
Type: toxicity, organism-based, Sprague-Dawley
Set-up: regimen Daily Repeat, gender Male, age 6 weeks
testParameters: in vivo, po, 0 mg/kg, […], tissue Kidney, route gavage, dose level Control, time 7 day
measurementType: KIDNEY_R (g)
One number for each entry, in g.

Hello, I would appreciate it if you could give KIDNEY_R for each entry below.
1. CC(C)OC(=O)C(C)(C)Oc1ccc(C(=O)c2ccc(Cl)cc2)cc1 [FENOFIBRATE]
2. CC1=C(/C=C/C(C)=C/C=C/C(C)=C/CO)C(C)(C)CCC1
3. O=C(CCCN1CCC(O)(c2ccc(Cl)cc2)CC1)c1ccc(F)cc1

Output:
1: 1.1; 2: 1.1; 3: 1.1

Hello, I would appreciate it if you could give KIDNEY_R for each entry below.
1. CN1C(=O)CN=C(c2ccccc2)c2cc(Cl)ccc21
2. CCOc1ccc(NC(=O)CC(C)O)cc1 (stereo not drawn)
3. CCOC(=O)CCC(=O)O[C@H]1[C@H](O[C@@H]2[C@@H](C)[C@H](O[C@H]3C[C@@](C)(OC)[C@@H](O)[C@H](C)O3)[C@@H](C)C(=O)O[C@H](CC)[C@@](C)(O)[C@H](O)[C@@H](C)C(=O)[C@H](C)C[C@@]2(C)O)O[C@H](C)C[C@@H]1N(C)C [ERYTHROMYCIN ETHYLSUCCINATE]

Output:
1.3
1.1
1.1

Hello, I would appreciate it if you could give KIDNEY_R for each entry below.
1. CN(C)CCCN1c2ccccc2CCc2ccccc21
2. CN(C)CCN(Cc1cccs1)c1ccccn1
3. COC1=CC(=O)C[C@@H](C)[C@]12Oc1c(Cl)c(OC)cc(OC)c1C2=O

Output:
1.1
1
1.2

====

Species: Rattus norvegicus
measurementNotes: Open TG-GATES - Regimen: Daily Repeat
Format: toxicity, organism-based, Sprague-Dawley
Parameters: regimen Daily Repeat, gender Male, age 6 weeks
testParameters: in vivo, po, 1000 mg/kg, […], tissue Plasma, route gavage, dose level High, time 7 day
measurementType: Na
Please provide the amount together with its unit, number first.

{"compound": "CCOc1ccc(NC(=O)CC(C)O)cc1 (stereo not given)", "result": "144.4 meq/L"}

Hello, I would appreciate it if you could give Na for each entry below.
1. NC(N)=Nc1nc(CSCCC(N)=NS(N)(=O)=O)cs1
2. CCOC(=O)CCC(=O)O[C@H]1[C@H](O[C@@H]2[C@@H](C)[C@H](O[C@H]3C[C@@](C)(OC)[C@@H](O)[C@H](C)O3)[C@@H](C)C(=O)O[C@H](CC)[C@@](C)(O)[C@H](O)[C@@H](C)C(=O)[C@H](C)C[C@@]2(C)O)O[C@H](C)C[C@@H]1N(C)C [ERYTHROMYCIN ETHYLSUCCINATE]
3. COc1ccc2[nH]c([S+]([O-])Cc3ncc(C)c(OC)c3C)nc2c1 (stereo not given)
4. COC1=CC(=O)C[C@@H](C)[C@]12Oc1c(Cl)c(OC)cc(OC)c1C2=O

Output:
140.8 meq/L
141.8 meq/L
140.6 meq/L
142 meq/L

====

Please go through the items and note down their TP.
Species: Rattus norvegicus
measurementNotes: Open TG-GATES - Regimen: Daily Repeat
Assay type: toxicity, organism-based, Sprague-Dawley
Parameters: regimen Daily Repeat, gender Male, age 6 weeks
testParameters: in vivo, po, 1000 mg/kg, […], tissue Plasma, route gavage, dose level High, time 28 day
Give bare numbers, in g/dL.

Sample records with TP:
{"compound": "CCOC(=O)CCC(=O)O[C@H]1[C@H](O[C@@H]2[C@@H](C)[C@H](O[C@H]3C[C@@](C)(OC)[C@@H](O)[C@H](C)O3)[C@@H](C)C(=O)O[C@H](CC)[C@@](C)(O)[C@H](O)[C@@H](C)C(=O)[C@H](C)C[C@@]2(C)O)O[C@H](C)C[C@@H]1N(C)C [ERYTHROMYCIN ETHYLSUCCINATE]", "TP (g/dL)": 5.7}
{"compound": "COc1ccc2[nH]c([S+]([O-])Cc3ncc(C)c(OC)c3C)nc2c1 (stereo unspecified) [OMEPRAZOLE]", "TP (g/dL)": 6.6}
{"compound": "COC1=CC(=O)C[C@@H](C)[C@]12Oc1c(Cl)c(OC)cc(OC)c1C2=O [GRISEOFULVIN]", "TP (g/dL)": 6.2}
{"compound": "NC(N)=Nc1nc(CSCCC(N)=NS(N)(=O)=O)cs1 [FAMOTIDINE]", "TP (g/dL)": 6}
{"compound": "CCOc1ccc(NC(=O)CC(C)O)cc1 (stereo unspecified) [BUCETIN]", "TP (g/dL)": 6.4}

Please find the next compound below.
Task: # TP lookup, item CC(C)OC(=O)C(C)(C)Oc1ccc(C(=O)c2ccc(Cl)cc2)cc1 [FENOFIBRATE]
Output: 6.2
